The entries below pair compounds with pIC50 values for BRD3 (Homo sapiens (Human), UniProt Q15059), as found in several publications.
pIC50: −log10 of the molar value.
MEASURED_ATTRIBUTE: pIC50

Here are 5 compounds together with their reported answers.
[
  {
    "COMPOUND": "Cc1nn(C2CC2)c2c1C(c1ccc(Cl)cc1)N(c1cc(C)c3nnc(C)n3c1)C2=O (stereo not shown)",
    "MEASURED_ATTRIBUTE": "pIC50",
    "NUMERIC_READOUT": 7.57
  },
  {
    "COMPOUND": "COc1cccc(-c2cc3c(n2C)C(c2ccc(Cl)cc2)N(c2cc(C)c(=O)n(C)c2)C3=O)n1 (stereo not shown)",
    "MEASURED_ATTRIBUTE": "pIC50",
    "NUMERIC_READOUT": 7.11
  },
  {
    "COMPOUND": "Cc1noc(C)c1-c1nc2c(n1C(C)C)C(c1ccc(Cl)cc1)N(c1cc(C)c(=O)n(C)c1)C2=O (stereo not shown)",
    "MEASURED_ATTRIBUTE": "pIC50",
    "NUMERIC_READOUT": 7.02
  },
  {
    "COMPOUND": "Cc1cc(N2C(=O)c3c(C4CC4)nn(-c4ccnn4C)c3C2c2ccc(Cl)cc2)cn(C)c1=O (stereo not shown)",
    "MEASURED_ATTRIBUTE": "pIC50",
    "NUMERIC_READOUT": 7.09
  },
  {
    "COMPOUND": "COc1cc(N2C(=O)c3nc(C4=CCCN(C)C4)n(C(C)C)c3C2c2ccc(Cl)cc2)cc2c1nnn2C (stereo not shown)",
    "MEASURED_ATTRIBUTE": "pIC50",
    "NUMERIC_READOUT": 7.07
  }
]

[a] COc1ncccc1-c1cc2c(n1C)C(c1ccc(Cl)cc1)N(c1cc(C)c3nnc(C)n3c1)C2=O (stereo not shown)
[b] CC(=O)N1CC(n2nc(C)c3c2C(=O)N(c2cc(C)c(=O)n(C)c2)C3c2ccc(Cl)cc2)C1 (stereo not shown)
In: Would you kindly point out which of a and b has the smaller pIC50 figure? Respond with the label that goes with your answer.
Out: b

* * *

The entries below pair compounds with IC50 values for BRD3 (Homo sapiens (Human), UniProt Q15059), as found in several publications.
MEASURED_ATTRIBUTE: IC50 (nM)

Here are 2 compounds together with their reported answers.
[
  {
    "COMPOUND": "COc1ncccc1-c1nc2c([nH]1)[C@@H](c1ccc(Cl)cc1)N(c1cc(C)c3nnc(C)n3c1)C2=O",
    "SYSTEM": "BRD3 (Homo sapiens (Human), UniProt Q15059)",
    "MEASURED_ATTRIBUTE": "IC50",
    "NUMERIC_READOUT": 36
  },
  {
    "COMPOUND": "Cc1cc(N2C(=O)c3c(nc(C)n3C(C)C)C2c2ccc(Cl)cc2)cc2c1nnn2C (racemic)",
    "SYSTEM": "BRD3 (Homo sapiens (Human), UniProt Q15059)",
    "MEASURED_ATTRIBUTE": "IC50",
    "NUMERIC_READOUT": 12
  }
]

[1] CC(=O)N1CC(n2cc(C)c3c2C(c2ccc(Cl)cc2)N(c2cc(C)c4nnc(C)n4c2)C3=O)C1 (stereo not shown)
[2] COc1nccc(-c2cc3c(n2C)C(c2ccc(Cl)cc2)N(c2cc(Cl)c(=O)n(C)c2)C3=O)n1 (stereo not shown)
[3] Cc1cc(N2C(=O)c3nn(C(=O)N(C)C)c(C)c3C2c2ccc(Cl)cc2)cn(C)c1=O (stereo not shown)
[4] Cc1cc(N2C(=O)c3c(NC(=O)CCN(C)C)cn(C)c3C2c2ccc(Cl)cc2)cc2c1nnn2C (stereo not shown)
In: Rank entries according to their IC50, from the largest number down. Rank them, then answer with their labels in that order.
Out: 2, 3, 4, 1

* * *

The entries below pair compounds with IC50 values for BRD3 (Homo sapiens (Human), UniProt Q15059), as found in several publications.
MEASURED_ATTRIBUTE: IC50 (nM)

[
  {
    "COMPOUND": "Cc1cc(N2C(=O)c3nc(C4CCN(C)CC4)n(C(C)C)c3C2c2ccc(Cl)cc2)nn2c(C)nnc12 (stereo not drawn)",
    "MEASURED_ATTRIBUTE": "IC50",
    "UNIT_STRING": "nM",
    "NUMERIC_READOUT": 33
  },
  {
    "COMPOUND": "COc1nccc(-n2nc(C)c3c2C(=O)N(c2cc(C)c(=O)n(C)c2)C3c2ccc(Cl)cc2)n1 (stereo not drawn)",
    "MEASURED_ATTRIBUTE": "IC50",
    "UNIT_STRING": "nM",
    "NUMERIC_READOUT": 480
  },
  {
    "COMPOUND": "Cc1cc(N2C(=O)c3c(cnn3C3CC3)C2c2ccc(Cl)cc2)cn(C)c1=O (stereo not drawn)",
    "MEASURED_ATTRIBUTE": "IC50",
    "UNIT_STRING": "nM",
    "NUMERIC_READOUT": 110
  },
  {
    "COMPOUND": "Cc1n[nH]c2c1C(c1ccc(F)cc1F)N(c1cc(C)c3nnc(C)n3c1)C2=O (stereo not drawn)",
    "MEASURED_ATTRIBUTE": "IC50",
    "UNIT_STRING": "nM",
    "NUMERIC_READOUT": 110
  },
  {
    "COMPOUND": "Cc1cc(N2C(=O)c3c(C4CC4)nn(C)c3[C@H]2c2ccc(Cl)cc2)cn2c(C)nnc12",
    "MEASURED_ATTRIBUTE": "IC50",
    "UNIT_STRING": "nM",
    "NUMERIC_READOUT": 12
  },
  {
    "COMPOUND": "Cc1cc(N2C(=O)c3c(C(N)=O)cn(C)c3C2c2ccc(Cl)cc2)cn2c(C)nnc12 (stereo not drawn)",
    "MEASURED_ATTRIBUTE": "IC50",
    "UNIT_STRING": "nM",
    "NUMERIC_READOUT": 42
  },
  {
    "COMPOUND": "Cc1cc(N2C(=O)c3cc(-c4cccc(=O)n4C)n(C4CC4)c3C2c2ccc(Cl)cc2)cn(C)c1=O (stereo not drawn)",
    "MEASURED_ATTRIBUTE": "IC50",
    "UNIT_STRING": "nM",
    "NUMERIC_READOUT": 85
  },
  {
    "COMPOUND": "Cc1[nH]nc2c1C(=O)N(c1cc(Cl)c(=O)n(C)c1)C2c1ccc(Cl)cc1 (stereo not drawn)",
    "MEASURED_ATTRIBUTE": "IC50",
    "UNIT_STRING": "nM",
    "NUMERIC_READOUT": 80
  },
  {
    "COMPOUND": "Cc1cc(N2C(=O)c3c(C4CNC4)cn(C)c3C2c2ccc(Cl)cc2)nc2c1nnn2C (stereo not drawn)",
    "MEASURED_ATTRIBUTE": "IC50",
    "UNIT_STRING": "nM",
    "NUMERIC_READOUT": 13
  },
  {
    "COMPOUND": "Cc1nn(C2CN(C)C2)c2c1C(c1ccc(Cl)cc1)N(c1cc(C)c3nnc(C)n3c1)C2=O (stereo not drawn)",
    "MEASURED_ATTRIBUTE": "IC50",
    "UNIT_STRING": "nM",
    "NUMERIC_READOUT": 200
  }
]

[a] Cc1cc(N2C(=O)c3nc(C4=CC(C)(C)NC(C)(C)C4)n(C(C)C)c3C2c2ccc(Cl)cc2)cn2c(CF)nnc12 (stereo not drawn)
[b] COc1ncccc1-c1nc2c([nH]1)C(c1ccc(Cl)cc1)N(c1cc(C)c3nnn(C)c3c1)C2=O (stereo not drawn)
In: When their IC50 values are compared, which is larger, a or b ? Respond with the label that goes with your answer.
Out: a
(a: 37 nM, b: 19.5 nM)

[A] CCOC(=O)n1ccc2c1C(c1ccc(Cl)cc1)N(c1cc(C)c3nnc(C)n3c1)C2=O (stereo not drawn)
[B] Cc1nn(C2CC2)c2c1[C@@H](c1ccc(F)cc1F)N(c1cc(C)c3nnc(C)n3c1)C2=O
In: When their IC50 values are compared, which is larger, A or B ? Respond with the label that goes with your answer.
Out: B
(B: 40 nM, A: 26 nM)

* * *

The entries below pair molecules with IC50 values for BRD3 (Homo sapiens (Human)), as found in several publications.
MEASURED_ATTRIBUTE: IC50 (nM)

Here are 3 molecules together with their reported answers.
[
  {
    "MOLECULE": "COc1ncc(-n2nc3c(c2C)C(=O)N(c2cc(C)c(=O)n(C)c2)C3c2ccc(Cl)cc2)c(OC)n1 (stereo not shown)",
    "SYSTEM": "BRD3 (Homo sapiens (Human))",
    "UNIT_STRING": "nM",
    "IC50": 74
  },
  {
    "MOLECULE": "CCn1nc2c(c1C)C(c1ccc(Cl)cc1F)N(c1cc(C)c(=O)n(C)c1)C2=O (stereo not shown)",
    "SYSTEM": "BRD3 (Homo sapiens (Human))",
    "UNIT_STRING": "nM",
    "IC50": 93
  },
  {
    "MOLECULE": "Cc1ncc(-c2nc3c(n2C(C)C)C(c2ccc(Cl)cc2)N(c2cc(C)c(=O)n(C)c2)C3=O)s1 (stereo not shown)",
    "SYSTEM": "BRD3 (Homo sapiens (Human))",
    "UNIT_STRING": "nM",
    "IC50": 100
  }
]

[a] CCCn1c(-c2cncc(C#N)c2)nc2c1C(=O)N(c1cc(C)c(=O)n(C)c1)C2c1ccc(Cl)cc1 (stereo not shown)
[b] Cc1cc(N2C(=O)c3nc(C4=CCOCC4)[nH]c3C2c2ccc(Cl)cc2)nc2c1nnn2C (stereo not shown)
In: Would you kindly point out which of a and b has the smaller IC50 figure? Respond with the label that goes with your answer.
Out: b
(b: 13 nM, a: 164 nM)

[P] Cc1nn(C2CC2)c2c1[C@@H](c1ccc(Cl)cc1)N(c1cc(Cl)c(=O)n(C)c1)C2=O
[Q] Cc1cc(N2C(=O)c3ccn(C(=O)N(C)C)c3C2c2ccc(Cl)cc2)cn2c(C)nnc12 (stereo not shown)
In: When their IC50 values are compared, which is larger, P or Q ? Respond with the label that goes with your answer.
Out: Q
(Q: 87 nM, P: 21 nM)
